- Tested on: EKVX
- ASSAY_DETAILS: NCI tumour cell line growth inhibition, 48 h
The source made the active and inactive calls. Rule as the data show it: active = GI50 up to about 1.1 µM and inactive = higher.
Give your call using only these classes: active, inactive

| COMPOUND | LABEL_CLASS |
| --- | --- |
| NC(=O)c1cc2cc(Cl)cc(Cl)c2o/c1=N\c1ccc(F)cc1 | inactive |
| CC(C)(CN1CCOCC1)C(=O)/C=C/c1ccc(/C=C/C(=O)C(C)(C)CN2CCOCC2)cc1 | inactive |
| O=C1C(Cl)C(c2ccc(Cl)cc2)N1n1cnc2ccccc2c1=O (stereo not drawn) | inactive |
| COc1cccc2c1OC1c3ccccc3OCC1(O)C2 (stereo not drawn) | inactive |
| CC1=CC(=O)[C@@H](O)[C@]2(C)[C@H]3[C@@]4(O)OC[C@]35[C@H]([C@@H](C)[C@H]4O)[C@@H](O)C(=O)O[C@@H]5C[C@@H]12 | active |
| O/N=N\c1nc(-c2cccnc2)nc2ccccc12 | inactive |

Look up the recorded call for COC(=O)c1cc(Cl)ccc1NC(=O)c1ccc([N+](=O)[O-])cc1 in this test.
inactive

Dear colleague, could you share the recorded outcome for O=C(O)C(F)(OC(F)(F)C(F)(OC(F)(F)C(F)(F)C(F)(F)F)C(F)(F)F)C(F)(F)F (stereo not drawn) when you have a moment?
inactive

Each compound tested received a call. Report the one for CC1(C)N=C(N)N=C(N)N1c1cccc(Cl)c1 .
inactive

# lookup: test call for COc1cc2nc(-c3ccc4ccccc4c3)nc(O)c2cc1OC
inactive

Recorded test call requested for Cc1ccc(NC(=O)CSc2nnc(Cc3ccccc3)o2)c(C)c1
inactive

* * *

- System: SK-OV-3
- ASSAY_DETAILS: NCI tumour cell line growth inhibition, 48 h
Activity calls are given as the source filed them. No stated cut-off is given here; in the data, active = GI50 up to about 1.1 µM and inactive = higher.
TEST_READOUT: GI50

Use the examples below as a reference point.
| COMPOUND | TARGET_OR_SYSTEM | GI50 |
| --- | --- | --- |
| Cc1c(C(=O)/C=C/c2ccccc2[N+](=O)[O-])[n+]([O-])c2ccccc2[n+]1[O-] | SK-OV-3 | 17.9 µM (inactive) |
| CC(=O)N1C(=O)/C(=C\C(=O)c2ccc([N+](=O)[O-])cc2)c2ccccc21 | SK-OV-3 | > 100 µM (inactive) |
| CC(=O)Nc1ccc(CNc2cc(=O)n(C)c(=O)[nH]2)cc1 | SK-OV-3 | > 100 µM (inactive) |
| C/C(=N\NC(N)=O)C(CN1CCOCC1)C(c1ccccc1)c1c(O)c2ccccc2oc1=O (stereo unspecified) | SK-OV-3 | > 100 µM (inactive) |
| CN(C)CCNC(=O)c1cccc2c(NC(CCC(N)=O)C(=O)O)c3ccccc3nc12 (stereo unspecified) | SK-OV-3 | 9.95 µM (inactive) |
| O=C(O)C(F)(OC(F)(F)C(F)(OC(F)(F)C(F)(F)C(F)(F)F)C(F)(F)F)C(F)(F)F (stereo unspecified) | SK-OV-3 | > 100 µM (inactive) |
| CN(C)c1ccc(C=c2c3cc(O)ccc3n3c2cc(-c2ccccc2)[n+]3C)cc1 | SK-OV-3 | 3.08 µM (inactive) |
| COC(=O)C(I(OS(=O)(=O)c1ccc(C)cc1)c1ccccc1)=P(c1ccccc1)(c1ccccc1)c1ccccc1 | SK-OV-3 | 25.1 µM (inactive) |
| CC(C)(C)c1cc(C(O)(C(F)(F)F)C(F)(F)F)c2c(c1)C(C(F)(F)F)(C(F)(F)F)OC(c1ccccc1)(C(C)(C)C)N2 (stereo unspecified) | SK-OV-3 | 2.7 µM (inactive) |
| COC(=O)[C@@H]1C[C@H]2[C@H](c3ccccc3Br)[C@@H](OC(C)=O)[C@@H](OCc3ccccc3)ON2O1 | SK-OV-3 | > 100 µM (inactive) |

Output measured GI50 for this item: O=C1N(Cl)C(=O)C(c2ccc(Cl)cc2)(c2ccc(Cl)cc2)N1Cl
> 100 µM (inactive)

* * *

- Tested on: CCRF-CEM
- ASSAY_DETAILS: NCI tumour cell line growth inhibition, 48 h
Active and inactive are the calls of the source. Cut-off read from the data, not from the text of the source: active = GI50 up to about 1.1 µM and inactive = higher.
# key: entry, value: GI50

Observe how each entry below is paired with its result.
| COMPOUND | RESULT |
| --- | --- |
| CC(=O)c1cccc(NC(=O)C(=O)c2c(O)oc3ccccc3c2=O)c1 | > 100 µM (inactive) |
| Cn1cc2ccccc2c1-c1nc(N)nc(F)n1 | > 100 µM (inactive) |
| CC1CC/C(=C\c2ccc(F)cc2)C2=C1C(c1ccc(F)cc1)n1c(s/c(=C/c3cccc(Br)c3)c1=O)=N2 (configuration not stated) | > 100 µM (inactive) |
| S=C1NC(c2ccccc2)=NC(Cc2ccccc2)(c2ccccc2)N1c1ccccc1 (configuration not stated) | > 100 µM (inactive) |
| CC(C)C1CC(CO)(CNc2cc(Cl)nc(N)n2)C1 (configuration not stated) | 75.7 µM (inactive) |
| C=CCCCCCCCCC(=O)O | 128 µM (inactive) |

Consider the compound COc1ccc(/C=C2/C(=O)C(c3ccccc3)N(c3ccccc3)C2=O)cc1OC (configuration not stated) . State its measured GI50.
> 10 µM (inactive)

Tell me its GI50 given CCCCCCCCCCCCCP(=O)(O)NCC(N)=O as the entry.
52.8 µM (inactive)

Quickly give me recorded GI50 for O=C(O)C(F)(OC(F)(F)C(F)(OC(F)(F)C(F)(F)C(F)(F)F)C(F)(F)F)C(F)(F)F (configuration not stated)
> 100 µM (inactive)

Return value of GI50 for input O=[N+]([O-])c1ccc2sc(/C=N/c3ccc(O)cc3)cc2c1 , no commentary.
15.3 µM (inactive)

Report GI50 for C/C(CC(=O)Nc1ccc(C)c(C)c1)=N\NC(N)=O
> 100 µM (inactive)

Indicate its recorded GI50; the compound in question is CCOc1ncn(-c2ccc(NC(=S)Nc3cnccn3)cc2)n1
> 10 µM (inactive)

Please give measured GI50 of the following entry: COC(=O)C1C(O)C(C(=O)OC)C(C)N(C)C1C (configuration not stated)
> 100 µM (inactive)

Assign GI50 to the following record: O=[N+]([O-])c1oc2ccc3ccccc3c2c1CCO
3.86 µM (inactive)

Note GI50 for the compound shown: COc1ccc(C(NS(=O)(=O)c2ccc(C)cc2)c2c(C(CBr)OC)c3ccccc3n2S(=O)(=O)c2ccccc2)cc1OC (configuration not stated)
89.7 µM (inactive)

Report GI50 for Cc1ccc(/C=C/C(=O)c2sc(-c3cccnc3)nc2C)cc1
> 100 µM (inactive)

Look up and state reported GI50 for CCN(CCCl)CCCCCNc1c2ccccc2nc2ccc(OC)cc12
0.0857 µM (active)

* * *

- Test system: HCC 2998
- ASSAY_DETAILS: NCI tumour cell line growth inhibition, 48 h
Active and inactive are the calls of the source. Rule as the data show it: active = GI50 up to about 1.1 µM and inactive = higher.
TEST_READOUT: GI50

| MOLECULE | RESULT |
| --- | --- |
| O=C(Nc1cc(C(=O)Nc2cccc(S(=O)(=O)O)c2)cc(C(=O)Nc2cccc(S(=O)(=O)O)c2)c1)c1cccc(C(=O)Nc2cc(C(=O)Nc3cccc(S(=O)(=O)O)c3)cc(C(=O)Nc3cccc(S(=O)(=O)O)c3)c2)c1 | > 100 µM (inactive) |
| COc1ccc2cc(NC(=O)N/N=C\c3ccc([N+](=O)[O-])cc3)ccc2c1 | 12.9 µM (inactive) |
| CC1OC(OC2C(OC(=O)[C@]34CCC(C)(C)C[C@H]3C3=CC[C@@H]5[C@@]6(C)CC[C@H](OC7OC(CO)C(O)C(O)C7OC7OC(CO)C(O)C(O)C7O)C(C)(C)[C@@H]6CC[C@@]5(C)[C@]3(C)CC4)OCC(O)C2O)C(O)C(O)C1OC1OCC(O)C(O)C1O (some centres undefined) | 1.98 µM (inactive) |

Read off the recorded GI50 for COCn1c(C)c(C)c2c(=O)oc(N(C)C)nc21
> 100 µM (inactive)

* * *

GI50 reference
- Test system: UACC-257
- ASSAY_DETAILS: NCI tumour cell line growth inhibition, 48 h
The source made the active and inactive calls. Cut-off read from the data, not from the text of the source: active = GI50 up to about 1.1 µM and inactive = higher.

Known GI50 results, listed for orientation:
| COMPOUND | RESULT |
| --- | --- |
| c1ccc2c(c1)Sc1ccccc1N2CCCN1c2ccccc2Sc2ccccc21 | > 100 µM (inactive) |
| COC(=O)CC[N+]1=CCC(c2ccccc2)(c2ccccc2)O1 | > 100 µM (inactive) |
| CC1c2ccccc2Cn2cc3c(c21)C(=O)c1cccc(OP(=O)(O)OCc2ccccc2)c1C3=O (stereo not given) | > 100 µM (inactive) |
| CCOC(OCC)C(CCc1ccccc1)c1c(N)nc(N)[nH]c1=O (stereo not given) | > 100 µM (inactive) |
| O=C1CCC2(c3ccccc3)Nc3ccc(Cl)cc3N12 (stereo not given) | > 100 µM (inactive) |
| CSc1ncc2c(n1)-c1ccccc1OC2N1CCCCC1 (stereo not given) | 34.6 µM (inactive) |
| CCc1n[nH]c(=O)n1/N=C/c1ccccc1O | > 100 µM (inactive) |
| O=c1ccs[nH]1 | 8.91 µM (inactive) |
| O=C(O)CCNc1ccccc1C(=O)O | > 100 µM (inactive) |
| COC(=O)CCc1cc(OC)c2c(c1)[C@H](C(=O)OC)[C@@H](c1ccc(O)c(OC)c1)O2 | > 100 µM (inactive) |

Provide GI50, system UACC-257, entry C1CSC(Sc2nc(SC3=NCCS3)nc(SC3=NCCS3)n2)=N1
> 100 µM (inactive)

Give GI50 for this entry on UACC-257: CC(=O)NC(C)(C)C1CCC(C)=C(c2ccccc2)C1 (stereo not given)
> 100 µM (inactive)

Give reported GI50 for Cn1c2cc([N+](=O)[O-])ccc2c(=O)c2c(O)cc3c(c21)C=CC(C)(C)O3 (UACC-257)
> 100 µM (inactive)

Print UACC-257 GI50 for CCc1cccc(C(C)C)c1N1C(=O)C(=O)C(c2nc3ccccc3s2)C(=O)C1=O .
> 39.3 µM (inactive)

For UACC-257, give the measured GI50 of the entry CC(C)C(C/C=C1/CC(CO)(COC(=O)c2ccccc2)OC1=O)C(C)C (stereo not given)
24.8 µM (inactive)
